- measured-on: IDO (Homo sapiens, UniProt P14902)
- Sequence (P14902 whole entry): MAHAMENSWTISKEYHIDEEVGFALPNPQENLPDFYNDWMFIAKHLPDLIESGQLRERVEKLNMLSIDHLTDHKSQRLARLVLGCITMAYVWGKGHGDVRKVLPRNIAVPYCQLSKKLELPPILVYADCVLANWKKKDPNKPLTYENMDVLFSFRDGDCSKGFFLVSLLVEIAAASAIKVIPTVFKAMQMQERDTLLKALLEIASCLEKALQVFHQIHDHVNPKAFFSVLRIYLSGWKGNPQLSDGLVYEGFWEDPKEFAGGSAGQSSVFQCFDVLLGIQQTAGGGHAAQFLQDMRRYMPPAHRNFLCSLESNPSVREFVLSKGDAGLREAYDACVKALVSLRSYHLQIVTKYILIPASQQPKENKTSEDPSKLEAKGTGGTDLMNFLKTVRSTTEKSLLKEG
- assay: SKOV3 kynurenine cell-based assay (IDO induced by IFN-γ)
- Design: IDO expression was induced in the SKOV3 cells by the addition of 500 ng/ml IFN-γ; endogenous in cells; host or cells: SKOV3 (human ovarian adenocarcinoma), induced with IFN-γ
- measurement-context: SKOV3 cells, IDO induced by 500 ng/ml IFN-γ, 48 hours; read-out: SKOV3 Kynurenine cell based assay pIC50 (converted)
// values below are reported IC50

## Task Identify IC50 associated with the molecule CC(=O)NC1CCC(c2cc(Cl)cc3[nH]ncc23)CC1 (mixture of isomers)
## Result 12.3 µM

## Task Identify IC50 associated with the molecule CS(=O)(=O)c1ccc(-c2cc(Cl)cc3[nH]ncc23)cc1
## Result 5.62 µM

## Task Identify IC50 associated with the molecule CC1(C)CN(c2cc(Cl)cc3[nH]ncc23)CCC12NC(=O)NC2=O (stereo not drawn)
## Result 0.145 µM

## Task Identify IC50 associated with the molecule CC(C)Cn1cc(-c2cc(Cl)cc3[nH]ncc23)cn1
## Result > 10 µM

## Task Identify IC50 associated with the molecule O=C1N[C@H]2CC[C@@H]1CN(c1cc(Cl)cc3[nH]ncc13)C2
## Result 38 µM

## Task Identify IC50 associated with the molecule CC1(C)CN(c2cc(Cl)cc3[nH]ncc23)CCN1S(C)(=O)=O
## Result 0.372 µM

## Task Identify IC50 associated with the molecule OC1(c2cc(Cl)cc3[nH]ncc23)CCCCC1
## Result 9.55 µM

## Task Identify IC50 associated with the molecule CS(=O)(=O)N1CCC(c2cc(Cl)cc3[nH]ncc23)CC1
## Result 8.32 µM

## Task Identify IC50 associated with the molecule CS(=O)(=O)N1CCN(c2cc(Cl)cc3[nH]ncc23)CC1
## Result 10.5 µM
